Target: T1, DDX21ΔN monomer (human, UniProt Q9NR30 186-783, L611R;A612R;A613R;A614R;L615R;A616R)
T1 sequence: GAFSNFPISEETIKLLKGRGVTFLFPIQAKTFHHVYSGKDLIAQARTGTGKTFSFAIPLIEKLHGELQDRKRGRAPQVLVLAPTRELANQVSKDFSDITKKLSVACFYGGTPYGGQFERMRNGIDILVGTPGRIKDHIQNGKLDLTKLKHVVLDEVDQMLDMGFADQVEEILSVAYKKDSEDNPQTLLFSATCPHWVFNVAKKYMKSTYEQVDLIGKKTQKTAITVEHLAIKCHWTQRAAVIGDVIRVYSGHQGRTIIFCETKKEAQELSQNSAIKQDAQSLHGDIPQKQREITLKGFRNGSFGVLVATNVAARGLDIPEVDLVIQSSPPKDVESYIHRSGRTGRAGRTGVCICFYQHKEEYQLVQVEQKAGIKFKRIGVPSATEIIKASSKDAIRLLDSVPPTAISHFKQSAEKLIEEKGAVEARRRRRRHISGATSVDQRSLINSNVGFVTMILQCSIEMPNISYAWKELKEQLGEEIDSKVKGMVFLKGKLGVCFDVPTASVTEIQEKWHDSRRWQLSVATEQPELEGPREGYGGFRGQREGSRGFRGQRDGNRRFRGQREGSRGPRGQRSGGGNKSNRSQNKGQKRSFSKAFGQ
Test: fluorescence polarization; FP: 50 mM Tris pH 7.5, 50 mM KCl, 5 mM MgCl2, no ATP; Hill-slope fit; temperature not given in the material
Conditions: protein: recombinant; label: 5'-FAM; single strand
MEASURE: Kd (nM)

* GUUUCGGAUCGACGC (ssRNA) [15-mer ssRNA] | 24.9
